Assay: IANBD-channel fluorescence artefacts in buffer – biochemical, artefact control for cardiac RTF calcium sensitizer project, confirmation (AID 504382)
Conditions: IANBD fluorescence interference counterscreen, EC20 Ca2+, at 7.2 µM, scaled: EC20 calcium 0, EC100 calcium 100
Screen size: about 2,500 compounds; about 460 (18%) were called active.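 Rule for the calls: active = mean activation above a cutoff of low control average plus 3 SD from the earlier screen (cut at about 12% in these data); inactive = the rest.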 A selection follows.
Give your call using only these classes: true (1) (active), false (0) (inactive)

* O=C(OCCN1C(=O)c2cccc3c(N4CCOCC4)ccc(c23)C1=O)c1ccc(Cl)cc1Cl | false (0)

Hi, sorry to bother you, what did the test record for CCCNC(=O)C12CCC(C)(C(=O)C1Br)C2(C)C (stereo unspecified) ?
false (0)

Hi, sorry to bother you, what did the test record for Cc1ccc(-c2ccc(OC(=O)c3ccc(=O)[nH]c3)c(C)c2)cc1 ?
false (0)

Hi, sorry to bother you, what did the test record for O=C1c2cccc3c([N+](=O)[O-])ccc(c23)C(=O)N1Cc1cccnc1 ?
false (0)

###

Test: IANBD-channel fluorescence artefacts in buffer – biochemical, artefact control for cardiac RTF calcium sensitizer project, confirmation (AID 504382)
Settings: IANBD fluorescence interference counterscreen, EC20 Ca2+, at 7.2 µM, hits give high values, scaled: EC20 calcium 0, EC100 calcium 100
The campaign covered roughly 2,500 compounds. About 460 (18%) were called active. A selection follows.
The molecules listed here are annotated with their fluorescence artifact activation.
Could you give me the number in %? Just the number is fine.

* COc1cccc(/C=N/Nc2nnc3c(n2)[nH]c2ccccc23)c1OC | 0.23

Kindly note the recorded fluorescence artifact activation for CN1CC=C2C(C#N)=C(N)C(C#N)(C#N)[C@H](c3cccc(Cl)c3)C2C1 (some centres not stated) , which is 10.2

###

Test: IANBD-channel fluorescence artefacts in buffer – biochemical, artefact control for cardiac RTF calcium sensitizer project, confirmation (AID 504382)
Conditions: IANBD fluorescence interference counterscreen, EC20 Ca2+, at 7.2 µM, hits give high values, scaled: EC20 calcium 0, EC100 calcium 100
In all, about 2,500 compounds went through this assay and about 460 (18%) were called active. The list is a sample of the results.
RECORDED METRIC: fluorescence artifact activation (%)
Could you give me the number in %? Just the number is fine.

# annotated cases, reported fluorescence artifact activation shown
* N=c1n(Cc2ccccc2)c2ccccc2n1CC(O)c1ccco1 (stereo unspecified) | 7.18
* CN(C)CCN(C)Cc1c2ccccc2c(CN(C)CCN(C)C)c2ccccc12 | 8.32
* CC1(C)CC(CC(=O)Nc2nccs2)(c2ccccc2)CCO1 (stereo unspecified) | 239
* Cc1cccc(NC(=O)Cn2cnc3ccc(S(=O)(=O)N4CCC(C)CC4)cc3c2=O)n1 | 3.57
* c1ccc2c(c1)CCCN2Cc1nnnn1CC1CCCO1 (stereo unspecified) | 0.36

Kindly note the recorded fluorescence artifact activation for Cc1ccc(NC(=O)/C(C#N)=C/c2ccc(C)s2)c(C)c1 , which is 0.06

Kindly note the recorded fluorescence artifact activation for CC1(C)CC2(CCCN(C(=S)Nc3ccccc3)C2)CCO1 (stereo unspecified) , which is 0.12

Kindly note the recorded fluorescence artifact activation for CCOC(=O)CCC(=O)NCc1ccc2c(c1)cc(C)n2C , which is 0.01

Kindly note the recorded fluorescence artifact activation for COc1cccc(CNC(=O)C2CCCN(c3nc4ccccc4o3)C2)c1 (stereo unspecified) , which is 0.08

Kindly note the recorded fluorescence artifact activation for COc1ccc(NC(=O)c2cccc(-c3ccc(O)cc3)c2)cn1 , which is -0.04

Kindly note the recorded fluorescence artifact activation for O=C1N(c2cccc(Cl)c2)C(c2ccccc2)N2CCCN12 (stereo unspecified) , which is -0.04
